Note to self: these molecules have IC50 reported for Prostaglandin E2 receptor EP3 subtype (Homo sapiens, UniProt P43115) in various publications.

Observe how each entry below is paired with its result.
| Molecule | Assay endpoint | Measured value |
| --- | --- | --- |
| Cc1cn(Cc2ccccc2C#N)c2c(/C=C/C(=O)NS(=O)(=O)c3cc(Cl)c(Cl)s3)cc(F)cc12 | IC50 | < 1000 nM |
| Cc1cn(Cc2ccc3ccccc3c2)c2c(-c3cc(NS(=O)(=O)c4ccc(F)c(F)c4)no3)cc(F)cc12 | IC50 | < 1000 nM |
| Cc1noc(C)c1Cn1cc(C)c2cc(F)cc(C=CC(=O)NS(=O)(=O)c3cc(F)c(F)cc3F)c21 | IC50 | < 1000 nM |
| CC12CCCC(/C=C/C(=O)O)=C1N(Cc1ccc(F)c(F)c1)C(=O)C2 (centres unmarked) | IC50 | 1000 to 10000 nM |
| O=C(COc1cccc2oc(=O)n(Cc3ccc4c(c3)OCO4)c12)NS(=O)(=O)c1cccs1 | IC50 | 1000 to 10000 nM |
| Cn1cc(/C=C/C(=O)O)c2c(Oc3ccc(Cl)cc3F)cccc21 | IC50 | < 1000 nM |
| Cc1cn(Cc2ccc(Cl)cc2Cl)c2c(-c3nnc(NS(=O)(=O)c4ccc(F)c(F)c4)o3)cc(F)cc12 | IC50 | < 1000 nM |
| CC(=O)c1cn(Cc2ccc(Cl)cc2Cl)c2c(/C=C/C(=O)O)cccc12 | IC50 | 1000 to 10000 nM |

// IC50 lookup, molecule = CN1C(=O)C(Sc2ccc3ccccc3c2)c2c(OCC(=O)NS(=O)(=O)c3cc(Cl)c(Cl)s3)cccc21 (centres unmarked) , result: < 1000 nM

// IC50 lookup, molecule = Cc1cn(Cc2ccc3ccccc3c2)c2c(-c3cc(NS(=O)(=O)c4cc(F)c(F)cc4F)no3)cc(F)cc12 , result: < 1000 nM

// IC50 lookup, molecule = O=C(COc1cccc2[nH]cc(S(=O)(=O)c3ccc(Cl)c(Cl)c3)c12)NS(=O)(=O)c1cc(Cl)c(Cl)s1 , result: < 1000 nM

// IC50 lookup, molecule = CC12CCCC(C=CC(=O)NS(=O)(=O)c3cc(Cl)c(Cl)s3)=C1N(Cc1ccc(F)cc1)C(=O)C2 (centres unmarked) , result: < 1000 nM

// IC50 lookup, molecule = Cc1cn(Cc2ccc(F)c(F)c2)c2c(/C=C/C(=O)NS(=O)(=O)c3cc(Cl)c(Cl)s3)cccc12 , result: < 1000 nM

// IC50 lookup, molecule = Cn1cc(C=CC(=O)NS(=O)(=O)c2ccc(F)c(F)c2)c2c(Oc3ccc(Cl)c(Cl)c3)cccc21 , result: < 1000 nM

// IC50 lookup, molecule = Cn1cc(Cc2ccc3ccccc3c2)c2c(-c3cccc(NS(=O)(=O)c4cc(Cl)c(Cl)s4)c3)cccc21 , result: 1000 to 10000 nM

// IC50 lookup, molecule = Cn1cc(C=CC(=O)NS(=O)(=O)c2ccc(Cl)cc2)c2c(Oc3ccc4ccccc4c3)cccc21 , result: < 1000 nM

// IC50 lookup, molecule = Cn1cc(Cc2ccc3ccccc3c2)c2c(-c3ccc(NS(=O)(=O)c4cc(Cl)c(Cl)s4)cc3)cccc21 , result: 1000 to 10000 nM

// IC50 lookup, molecule = Cc1cn(Cc2ccc(Cl)cc2Cl)c2c(-c3nnc(NS(=O)(=O)c4cc(Cl)c(Cl)s4)o3)cc(F)cc12 , result: < 1000 nM

// IC50 lookup, molecule = Cc1ccc(S(=O)(=O)c2c[nH]c3cccc(OCC(=O)NS(=O)(=O)c4cc(Cl)c(Cl)s4)c23)c(C)c1 , result: < 1000 nM

// IC50 lookup, molecule = Cn1cc(/C=C/C(=O)O)c2c(Oc3ccc(F)cc3F)cccc21 , result: < 1000 nM

// IC50 lookup, molecule = Cn1cc(/C=C/C(=O)NS(=O)(=O)c2cc(Cl)c(Cl)s2)c2c(Oc3ccc(F)cc3F)cccc21 , result: < 1000 nM

// IC50 lookup, molecule = Cn1cc(C=CC(=O)NS(=O)(=O)c2ccc(F)c(F)c2)c2c(Oc3ccc(F)c(F)c3)cccc21 , result: < 1000 nM

// IC50 lookup, molecule = CC12CCCC(C=CC(=O)NS(=O)(=O)c3cc(F)c(F)cc3F)=C1N(Cc1ccc(F)cc1)C(=O)C2 (centres unmarked) , result: < 1000 nM

// IC50 lookup, molecule = Cc1ccc(Sc2c[nH]c3cccc(OCC(=O)NS(=O)(=O)c4cc(Cl)c(Cl)s4)c23)c(C)c1 , result: < 1000 nM

// IC50 lookup, molecule = CC12CCCC(C=CC(=O)NS(=O)(=O)c3cc(Cl)cc(Cl)c3)=C1N(Cc1ccc(F)c(F)c1)C(=O)C2 (centres unmarked) , result: < 1000 nM

// IC50 lookup, molecule = Cc1cn(CCC(=O)NS(=O)(=O)c2ccc(F)c(F)c2)c2c(Oc3ccc(Cl)cc3Cl)cc(F)cc12 , result: < 1000 nM

// IC50 lookup, molecule = Cn1cc(Cc2ccc3ccccc3c2)c2c(-c3ccc(NC(=O)C(F)(F)F)cc3)cccc21 , result: < 1000 nM

// IC50 lookup, molecule = Cc1cn(Cc2ccc(Cl)cc2Cl)c2c(-c3nnc(NS(=O)(=O)c4cc(F)c(F)cc4F)o3)cc(F)cc12 , result: < 1000 nM

// IC50 lookup, molecule = Cc1cn(Cc2ccc(Cl)cc2Cl)c2c(-c3cc(NS(=O)(=O)c4cc(Cl)c(Cl)s4)no3)cc(F)cc12 , result: < 1000 nM

---

Note to self: these compounds have IC50 reported for Prostaglandin E2 receptor EP3 subtype (Homo sapiens, UniProt P43115) in various publications.

Observe how each entry below is paired with its result.
| Compound | Assay endpoint | Measured value |
| --- | --- | --- |
| Cc1cn(Cc2cc(F)cc3c2OCOC3)c2c(/C=C/C(=O)NS(=O)(=O)c3cccs3)cccc12 | IC50 | < 1000 nM |
| CN1C(=O)C(=Nc2ccc3ccccc3c2)c2c(C=CC(=O)NS(=O)(=O)c3cc(Cl)c(Cl)s3)cccc21 | IC50 | < 1000 nM |
| CN1C(=O)C(Nc2ccc(Cl)cc2Cl)c2c(C=CC(=O)NS(=O)(=O)c3cc(Cl)c(Cl)s3)cccc21 (stereo not drawn) | IC50 | < 1000 nM |
| Cn1cc(/C=C/C(=O)O)c2c(Oc3ccc(Cl)cc3Cl)cccc21 | IC50 | < 1000 nM |
| O=C(O)C=Cc1cccc2c1N(Cc1ccc(Cl)cc1Cl)C(=O)C21OCCO1 | IC50 | < 1000 nM |
| O=C(Nc1cccc2c1N(Cc1ccc3ccccc3c1)C(=O)CO2)C(=O)NS(=O)(=O)c1cccs1 | IC50 | 1000 to 10000 nM |
| O=C(C=Cc1cccc2c1N(Cc1ccc(Cl)cc1Cl)C(=O)C2=O)NS(=O)(=O)c1cc(Cl)c(Cl)s1 | IC50 | < 1000 nM |
| Cc1cn(Cc2ccc(Cl)cc2Cl)c2c(-c3nnc(NS(C)(=O)=O)o3)cc(F)cc12 | IC50 | 1000 to 10000 nM |
| COc1ccc(S(=O)(=O)c2c[nH]c3cccc(OCC(=O)NS(=O)(=O)c4cc(Cl)c(Cl)s4)c23)cc1OC | IC50 | < 1000 nM |
| O=C(COc1cccc2c1N(Cc1ccc3ccccc3c1)C(=O)CO2)NS(=O)(=O)c1cccs1 | IC50 | < 1000 nM |

// IC50 lookup, compound = CCOC(=O)C12CCCC(C=CC(=O)NS(=O)(=O)c3cc(Cl)c(Cl)s3)=C1N(Cc1ccc(Cl)cc1Cl)C(=O)C2 (stereo not drawn) , result: < 1000 nM

// IC50 lookup, compound = CC1C(=O)N(Cc2ccc3ccccc3c2)c2c(C=CC(=O)NS(=O)(=O)c3cccs3)cccc21 (stereo not drawn) , result: < 1000 nM

// IC50 lookup, compound = Cn1cc(/C=C/C(=O)NS(=O)(=O)c2ccc(F)c(F)c2)c2c(Oc3ccc4ccccc4c3)cccc21 , result: < 1000 nM

// IC50 lookup, compound = O=C(O)/C=C/c1cccc2c1N(Cc1ccc(F)c(F)c1)C(=O)C2=O , result: 1000 to 10000 nM

// IC50 lookup, compound = CC12CCCC(C=CC(=O)NS(=O)(=O)c3cc(F)cc(F)c3)=C1N(Cc1ccc(F)cc1)C(=O)C2 (stereo not drawn) , result: < 1000 nM

// IC50 lookup, compound = CC12CCCC(C=CC(=O)NS(=O)(=O)c3ccc(F)c(F)c3)=C1N(Cc1ccc(F)cc1)C(=O)C2 (stereo not drawn) , result: < 1000 nM

// IC50 lookup, compound = Cc1cn(Cc2ccc(F)c(F)c2)c2c(-c3cc(NS(C)(=O)=O)n(C)n3)cc(F)cc12 , result: 1000 to 10000 nM

// IC50 lookup, compound = Cc1cn(Cc2ccc(Cl)cc2Cl)c2c(/C=C/C(=O)O)cc(F)cc12 , result: < 1000 nM
